Listing: inhibition at 1 µM of selected compounds
# Experimental System: Rat TRPA1 expressing CHO cells (Rattus norvegicus, UniProt Q6RI86)
# Construct: expressed in transfected cells; host or cells: CHO cells (Zeocin selection)
# Sequence (Q6RI86 whole entry): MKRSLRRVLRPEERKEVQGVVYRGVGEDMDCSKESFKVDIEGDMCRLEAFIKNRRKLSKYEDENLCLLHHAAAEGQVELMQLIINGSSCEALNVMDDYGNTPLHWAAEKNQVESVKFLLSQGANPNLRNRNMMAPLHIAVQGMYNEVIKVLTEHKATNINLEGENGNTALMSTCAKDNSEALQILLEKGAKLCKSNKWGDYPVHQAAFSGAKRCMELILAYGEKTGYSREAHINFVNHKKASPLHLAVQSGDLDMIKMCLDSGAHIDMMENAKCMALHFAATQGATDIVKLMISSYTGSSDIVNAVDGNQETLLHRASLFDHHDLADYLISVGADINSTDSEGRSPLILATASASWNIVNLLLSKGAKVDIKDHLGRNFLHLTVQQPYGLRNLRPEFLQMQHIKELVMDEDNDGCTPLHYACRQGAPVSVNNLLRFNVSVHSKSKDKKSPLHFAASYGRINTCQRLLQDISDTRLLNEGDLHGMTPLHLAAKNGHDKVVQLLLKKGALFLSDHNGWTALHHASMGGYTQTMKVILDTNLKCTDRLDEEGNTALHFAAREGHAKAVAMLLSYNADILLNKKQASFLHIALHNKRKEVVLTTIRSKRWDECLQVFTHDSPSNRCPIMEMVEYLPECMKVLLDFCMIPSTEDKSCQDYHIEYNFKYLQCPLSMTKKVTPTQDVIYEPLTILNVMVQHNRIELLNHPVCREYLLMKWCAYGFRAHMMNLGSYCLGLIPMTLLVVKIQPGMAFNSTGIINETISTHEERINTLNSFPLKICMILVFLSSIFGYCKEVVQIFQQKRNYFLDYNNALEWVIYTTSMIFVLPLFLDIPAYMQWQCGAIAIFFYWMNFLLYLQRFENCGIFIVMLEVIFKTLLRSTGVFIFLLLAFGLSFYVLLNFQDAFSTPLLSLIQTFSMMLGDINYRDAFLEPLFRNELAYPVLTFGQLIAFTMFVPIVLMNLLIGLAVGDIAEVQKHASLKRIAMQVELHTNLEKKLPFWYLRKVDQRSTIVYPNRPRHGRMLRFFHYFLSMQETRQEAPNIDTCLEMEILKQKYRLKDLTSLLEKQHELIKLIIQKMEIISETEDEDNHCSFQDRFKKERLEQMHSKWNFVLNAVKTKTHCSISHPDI
# Protocol: 45Calcium uptake assay, inhibition of AITC induced calcium uptake (rat)
# Type: cell-based
# Measurement Conditions: rat TRPA1 CHO cells, AITC 10 μM, compound 1.0 μM; read-out: Percentage inhibition at 1.0 μM
Form field: result (number plus unit)

Solved cases (2 shown):
Compound | Experimental System | inhibition at 1 µM
Cn1c(=O)c2c(CC(=O)Nc3nc(-c4ccc(F)c(OC(F)(F)F)c4)cs3)scc2n(C)c1=O [Example 55] | Rat TRPA1 expressing CHO cells (Rattus norvegicus, UniProt Q6RI86) | 70.4%
Cc1sc2c(c1CC(=O)Nc1nc(-c3ccc(F)c(C(F)(F)F)c3)cs1)c(=O)n(C)c(=O)n2C [Example 23] | Rat TRPA1 expressing CHO cells (Rattus norvegicus, UniProt Q6RI86) | 100%

Noted inhibition at 1 µM for Cn1c(=O)c2c(CC(=O)Nc3nc(-c4cccc(OC(F)(F)F)c4)cs3)csc2n(C)c1=O [Example 3] , tested on Rat TRPA1 expressing CHO cells (Rattus norvegicus, UniProt Q6RI86): 82.4%

Noted inhibition at 1 µM for Cn1c(=O)c2c(CC(=O)Nc3nc(-c4ccc(F)c(C(F)(F)F)c4F)cs3)scc2n(C)c1=O [Example 57] , tested on Rat TRPA1 expressing CHO cells (Rattus norvegicus, UniProt Q6RI86): 97%

----------
# Experimental System: Rat TRPA1 expressing CHO cells (Rattus norvegicus)
# Construct: expressed in transfected cells; host or cells: CHO cells (Zeocin selection)
# Protocol: 45Calcium uptake assay, inhibition of AITC induced calcium uptake (rat)
# Type: cell-based
# Measurement Conditions: rat TRPA1 CHO cells, AITC 10 μM, compound 10.0 μM; read-out: Percentage inhibition at 10.0 μM
Listing: inhibition at 10 µM of selected molecules
Kindly answer with a numeric value in %, unit omitted.

Solved cases (10 shown):
Molecular String | inhibition at 10 µM [%]
CC(C)Cc1ccc(-c2csc(NC(=O)Cc3scc4c3c(=O)n(C)c(=O)n4C)n2)cc1 | 95.3
Cc1sc2c(c1CC(=O)Nc1nc(-c3cccc(OC(F)(F)F)c3)cs1)c(=O)n(C)c(=O)n2C | 100
CCCc1sc2c(c1CC(=O)Nc1nc(-c3cc(F)c(OC(F)F)c(F)c3)cs1)c(=O)n(C)c(=O)n2C | 99.5
CCc1sc2c(c1CC(=O)Nc1nc(-c3cc(F)c(OC(F)F)c(F)c3)cs1)c(=O)n(C)c(=O)n2C | 97.3
CCc1sc2c(c1CC(=O)Nc1nc(-c3ccc(C#N)cc3)cs1)c(=O)n(C)c(=O)n2C | 83.6
Cn1c(=O)c2c(CC(=O)Nc3nc(-c4cc(F)c(OC(F)F)c(F)c4)cs3)scc2n(C)c1=O | 87.6
Cn1c(=O)c2c(CC(=O)Nc3nc(-c4ccc(F)c(C(F)(F)F)c4F)cs3)scc2n(C)c1=O | 100
Cn1c(=O)c2c(CC(=O)Nc3nc(-c4ccc(F)c(C(F)(F)F)c4)cs3)csc2n(C)c1=O | 99.9
Cn1c(=O)c2c(CC(=O)Nc3nc(-c4cc(F)cc(C(F)(F)F)c4)cs3)scc2n(C)c1=O | 91.8
Cn1c(=O)c2c(CC(=O)Nc3nc(-c4cccc(C(F)(F)F)c4)cs3)scc2n(C)c1=O | 99.7

Noted inhibition at 10 µM for Cc1sc2c(c1CC(=O)Nc1nc(-c3ccc(F)c(C(F)(F)F)c3)cs1)c(=O)n(C)c(=O)n2C , tested on Rat TRPA1 expressing CHO cells (Rattus norvegicus): 99.7

Noted inhibition at 10 µM for Cn1c(=O)c2c(CC(=O)Nc3nc(-c4ccc(OC(F)(F)F)c(F)c4)cs3)scc2n(C)c1=O , tested on Rat TRPA1 expressing CHO cells (Rattus norvegicus): 98.1

Noted inhibition at 10 µM for Cn1c(=O)c2c(CC(=O)Nc3nc(-c4ccc(Cl)cc4)cs3)csc2n(C)c1=O , tested on Rat TRPA1 expressing CHO cells (Rattus norvegicus): 99.3

Noted inhibition at 10 µM for Cn1c(=O)c2c(CC(=O)Nc3nc(-c4ccc(F)c(OC(F)(F)F)c4)cs3)scc2n(C)c1=O , tested on Rat TRPA1 expressing CHO cells (Rattus norvegicus): 99.9

Noted inhibition at 10 µM for Cc1sc2c(c1CC(=O)Nc1nc(-c3ccc(C(C)(C)C)cc3)cs1)c(=O)n(C)c(=O)n2C , tested on Rat TRPA1 expressing CHO cells (Rattus norvegicus): 99.2

----------
# Experimental System: Human TRPA1 expressing CHO cells (Homo sapiens, UniProt O75762)
# Construct: expressed in transfected cells; host or cells: CHO cells (G-418 selection)
# Sequence (O75762 whole entry): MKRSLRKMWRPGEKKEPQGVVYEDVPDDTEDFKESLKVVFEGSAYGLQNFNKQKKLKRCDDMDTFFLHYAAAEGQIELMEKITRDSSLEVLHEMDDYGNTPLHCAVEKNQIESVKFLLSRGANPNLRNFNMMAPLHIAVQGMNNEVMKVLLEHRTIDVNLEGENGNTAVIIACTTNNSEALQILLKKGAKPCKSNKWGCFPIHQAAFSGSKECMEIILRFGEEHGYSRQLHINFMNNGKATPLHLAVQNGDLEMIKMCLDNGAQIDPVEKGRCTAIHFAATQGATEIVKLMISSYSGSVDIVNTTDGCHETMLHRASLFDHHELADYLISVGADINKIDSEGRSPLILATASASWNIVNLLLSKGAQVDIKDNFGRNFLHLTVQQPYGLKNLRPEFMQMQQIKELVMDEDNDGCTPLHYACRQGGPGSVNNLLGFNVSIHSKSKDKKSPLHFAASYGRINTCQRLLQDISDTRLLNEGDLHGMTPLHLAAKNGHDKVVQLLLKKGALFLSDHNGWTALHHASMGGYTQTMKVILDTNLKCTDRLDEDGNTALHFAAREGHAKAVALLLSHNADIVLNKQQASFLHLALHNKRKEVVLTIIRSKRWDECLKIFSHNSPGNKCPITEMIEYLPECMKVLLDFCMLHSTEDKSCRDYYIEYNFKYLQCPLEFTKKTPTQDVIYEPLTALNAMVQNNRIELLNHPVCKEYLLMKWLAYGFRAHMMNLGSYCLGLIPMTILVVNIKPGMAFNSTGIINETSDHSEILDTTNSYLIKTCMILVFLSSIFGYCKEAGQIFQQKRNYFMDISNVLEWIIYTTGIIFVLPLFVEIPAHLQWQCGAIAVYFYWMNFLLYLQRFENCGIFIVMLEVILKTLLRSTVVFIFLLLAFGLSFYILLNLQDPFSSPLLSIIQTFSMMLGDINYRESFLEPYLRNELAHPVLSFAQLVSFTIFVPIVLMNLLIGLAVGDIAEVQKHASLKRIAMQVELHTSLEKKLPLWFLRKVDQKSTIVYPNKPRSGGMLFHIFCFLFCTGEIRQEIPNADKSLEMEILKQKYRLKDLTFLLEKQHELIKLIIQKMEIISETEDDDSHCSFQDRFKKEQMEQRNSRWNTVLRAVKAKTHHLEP
# Protocol: 45Calcium uptake assay, inhibition of AITC induced calcium uptake (human)
# Type: cell-based
# Measurement Conditions: human TRPA1 CHO cells, AITC 30 μM, compound 1.0 μM; read-out: Percentage inhibition at 1.0 μM
# Description: Screening for TRPA1 Antagonist Using the ^45Calcium Uptake Assay: The inhibition of TRPA1 receptor activation was measured as inhibition of allyl isothiocyanate (AITC) induced cellular uptake of radioactive calcium. Test compounds were dissolved in 100% DMSO to prepare 10 mM stock and then diluted using plain medium with 0.1% BSA and 1.8 mM CaCl2 to get the desired concentration. […] Radioactivity in the lysate was measured in a Packard TopCount after addition of liquid scintillant. […]
Listing: inhibition at 1 µM of selected compounds

Form field inhibition at 1 µM, entry CC(C)Cc1ccc(-c2csc(NC(=O)Cc3csc4c3c(=O)n(C)c(=O)n4C)n2)cc1 : 29.1%

Form field inhibition at 1 µM, entry Cc1sc2c(c1CC(=O)Nc1nc(-c3ccc(Cl)c(Cl)c3)cs1)c(=O)n(C)c(=O)n2C : 99%

Form field inhibition at 1 µM, entry Cn1c(=O)c2c(CC(=O)Nc3nc(-c4cccc(C(F)(F)F)c4F)cs3)csc2n(C)c1=O : 99.2%

Form field inhibition at 1 µM, entry Cn1c(=O)c2c(CC(=O)Nc3nccc(-c4ccc(Br)cc4)n3)csc2n(C)c1=O : 30.5%

Form field inhibition at 1 µM, entry Cn1c(=O)c2c(CC(=O)Nc3nc(-c4cc(F)cc(C(F)(F)F)c4)cs3)scc2n(C)c1=O : 95.1%

Form field inhibition at 1 µM, entry Cn1c(=O)c2c(CC(=O)Nc3nc(-c4ccc(F)c(C(F)(F)F)c4)cs3)scc2n(C)c1=O : 96%

----------
# Experimental System: Human TRPA1 expressing CHO cells (Homo sapiens, UniProt O75762)
# Construct: expressed in transfected cells; host or cells: CHO cells (G-418 selection)
# Protocol: 45Calcium uptake assay, inhibition of AITC induced calcium uptake (human)
# Type: cell-based
pIC50: −log10 of the molar value.
Endpoint Name: pIC50

Form field pIC50, entry Cn1c(=O)c2c(CC(=O)Nc3nc(-c4ccc(C(F)(F)F)cc4F)cs3)csc2n(C)c1=O [Example 7] : > 7.30

----------
# Experimental System: Human TRPA1 expressing CHO cells (Homo sapiens, UniProt O75762)
# Construct: expressed in transfected cells; host or cells: CHO cells (G-418 selection)
# Protocol: 45Calcium uptake assay, inhibition of AITC induced calcium uptake (human)
# Assay type: cell-based
# Measurement Conditions: human TRPA1 CHO cells, AITC 30 μM; read-out: Human IC50 value (Range)
# Procedure: Screening for TRPA1 Antagonist Using the ^45Calcium Uptake Assay: The inhibition of TRPA1 receptor activation was measured as inhibition of allyl isothiocyanate (AITC) induced cellular uptake of radioactive calcium. Test compounds were dissolved in 100% DMSO to prepare 10 mM stock and then diluted using plain medium with 0.1% BSA and 1.8 mM CaCl2 to get the desired concentration. […] Radioactivity in the lysate was measured in a Packard TopCount after addition of liquid scintillant. […]
pIC50: −log10 of the molar value.
Endpoint Name: pIC50

Solved cases (5 shown):
Molecular String | pIC50
Cc1sc2c(c1CC(=O)Nc1nc(-c3ccc(C(F)(F)F)c(F)c3)c[nH]1)c(=O)n(C)c(=O)n2C | 6.30 to 7.30
Cn1c(=O)c2c(CC(=O)Nc3nc(-c4ccc(Cl)c(Cl)c4)cs3)scc2n(C)c1=O | 6.30 to 7.30
Cc1sc2c(c1CC(=O)Nc1nc(-c3ccc(C(F)(F)F)c(F)c3)cs1)c(=O)n(C)c(=O)n2C | > 7.30
Cn1c(=O)c2c(CC(=O)Nc3nc(-c4ccc(Cl)c(Cl)c4)cs3)csc2n(C)c1=O | > 7.30
Cn1c(=O)c2c(CC(=O)Nc3ccn(-c4ccc(Br)cc4)n3)csc2n(C)c1=O | > 7.30

Noted pIC50 for Cn1c(=O)c2c(CC(=O)Nc3nc(-c4ccc(F)c(C(F)(F)F)c4)cs3)scc2n(C)c1=O , tested on Human TRPA1 expressing CHO cells (Homo sapiens, UniProt O75762): > 7.30

Noted pIC50 for CCc1sc2c(c1CC(=O)Nc1nc(-c3ccc(C#N)cc3)cs1)c(=O)n(C)c(=O)n2C , tested on Human TRPA1 expressing CHO cells (Homo sapiens, UniProt O75762): 6.30 to 7.30

Noted pIC50 for Cn1c(=O)c2c(CC(=O)Nc3nc(-c4cc(F)c(OC(F)F)c(F)c4)cs3)scc2n(C)c1=O , tested on Human TRPA1 expressing CHO cells (Homo sapiens, UniProt O75762): > 7.30
